Assay Explanation: NCI Yeast Anticancer Drug Screen. Data for the rad50 strain (AID 155);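 also: 0% = growth of vehicle-only cultures of the same strain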
Condition Set: S. cerevisiae rad50 strain growth inhibition; at 50.0 µM; active compounds read high
Compounds without any hit were thinned out: in the full panel of roughly 79,000, 15% have a hit.
Returns met if the recorded growth inhibition is greater than or equal to -10%, and not met otherwise.

• OCCN(CCO)C(=S)S = met
• CCOC(=O)CCCS(C)(=O)=O = not met
• CC(C)(C)n1nc(C2CC2)c(Br)c1NC(=O)c1ccccc1F = met
• CCCCN(CCCC)CCCO = not met
• COc1ccc(C2(O)CCCCC2)cc1 = met
• C#CCSc1nnnn1-c1ccc(Br)c(C)c1 = met
• c1c(-c2cc(C3CC3)[nH]n2)n[nH]c1C1CC1 = not met
• CCOc1ccc(Br)cc1/C=N\N=C\c1cc(Br)ccc1OCC = met
• Nc1nc2c(c(-c3nc(N)nc4c3CCc3ccccc3-4)n1)CCc1ccccc1-2 = met
• CNC(=O)c1ccccc1CC1(O)c2ccccc2Oc2ccccc21 = met
• Cc1nc2ccccc2c2nnc(SCC(=O)N(Cc3ccccc3)c3ccccc3)n12 = met
• Oc1ccc(Cc2ccccc2)c2cccnc12 = not met
• N#CCCc1ccc(O)cc1 = not met

---

growth inhibition values, listed per item
Assay Explanation: NCI Yeast Anticancer Drug Screen. Data for the cln2 rad14 strain (AID 165);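 also: 0% = growth equal to vehicle treated cultures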
Condition Set: S. cerevisiae cln2 rad14 strain, at 50.0 µM, active compounds read high
The panel holds about 79,000 compounds, 15% with a hit somewhere; the sample as a whole holds those more often.
Parameter Measured: growth inhibition (%)

* N#CC(=Nc1cccc(F)c1)C1=C(O)c2ccccc2C1=O | 27.6
* O=C(Cc1ccccc1)Cc1ccccc1 | -3.3
* CC(=O)OCC1=CC2OC(=O)C3=COC(OC4OC(CO)C(O)C(O)C4O)C1C32 (configuration not stated) | 13.4
* CC(=O)c1ccc2c(ccc3ccccc32)c1 | -14.6
* CC1CCC(C(=O)O)N1 (configuration not stated) | 4.45
* C=CCNC(=O)c1ccc(OC)cc1 | 1.7
* CCO/C=C1\SC(=S)N(c2cccc(C)c2)C1=O | 13.2

---

Assay Explanation: NCI Yeast Anticancer Drug Screen. Data for the mec2-1 strain (AID 157)
Condition Set: S. cerevisiae mec2-1 strain, at 50.0 µM, active compounds read high
Experimental: Growth inhibition of yeast strains with defined genetic alterations is measured as a screen for potential anti-cancer activity. Selected strains with alterations in DNA damage repair or cell cycle control were exposed to compounds and growth inhibition was measured relative to vehicle treated controls. The strain used in this assay is mec2-1
This is part of a sample that, as a whole, favours compounds with a hit. Of some 79,000 tested, about 15% had one in any assay. Calls of active or inactive are those of the source. No stated cut-off is given here; in the data, active means growth inhibition above about 70%; inactive means the rest.
growth inhibition values, listed per item
Parameter Measured: growth inhibition

- NNc1ccccc1C(=O)O: -3.05% (inactive)
- CC(=O)Nc1c(C)cc(C)cc1C: -0.35% (inactive)
- c1ccc2c(c1)Sc1ccccc1S2: 6.8% (inactive)
- COc1cc2cc(OC(C)=O)c3cc4c(cc3c2c(OC)c1OC)OCO4: -10.8% (inactive)
- NC(C(=O)O)c1ccc([N+](=O)[O-])cc1 (configuration not stated): -14.1% (inactive)
- COc1ccc2c(c1)CCc1c-2n[nH]c1-c1[nH]nc2c1CCc1cc(OC)ccc1-2: 0.35% (inactive)
- C#CCSc1nnnn1-c1ccc(Br)c(C)c1: 1.3% (inactive)
- CC(=O)c1ccc(N=C(C#N)C2=C(O)c3ccccc3C2=O)cc1: -12.4% (inactive)
- CCOC(=O)CCCC(=O)OCC: -8.1% (inactive)
- O=c1cc(-c2ccccc2)[nH]c(=S)[nH]1: -11.9% (inactive)
- O=C(O)[C@@H]1[C@H]2C[C@H]3c4[nH]c5ccccc5c4CCN3C[C@@H]2CC[C@@H]1O: -27% (inactive)
- C/C(O)=C(\C=N\C(N)=S)C(=O)Nc1ccccc1: -8.1% (inactive)
- O=[N+]([O-])c1ccccc1S(=O)c1ccccc1[N+](=O)[O-]: 21.6% (inactive)
- CCOC(=O)/C(=C/c1ccc(OC)cc1)N(CC)CC: -22.7% (inactive)
- COc1ccc(/C=C/c2cccc[n+]2C)cc1: 1.3% (inactive)
- Brc1cnc2ccccc2c1: 9.05% (inactive)
- Nc1ccc(N=Nc2ccc(S(=O)(=O)O)cc2)c2ccccc12: 3.15% (inactive)
- N#CCCN(CCCN1CCOCC1)CN1C(=O)c2ccccc2C1=O: 9.15% (inactive)
- CC(C)=C(NC(=O)c1ccccc1)C(=O)O: 0.35% (inactive)
- Cc1cccc(CO)c1: -28.6% (inactive)
- CC(=O)Nc1cccc(Cl)c1C: 11.7% (inactive)
- O=c1cc(-c2ccccc2)nc2cc(-c3ccco3)[nH]n12: -14.7% (inactive)
- C=CCNc1ccccc1: 4.35% (inactive)
- O=C(Nc1ccccc1C(=O)NCC1CC1)c1cccs1: -29.9% (inactive)
- O=C(O)C(O)c1ccccc1 (configuration not stated): -7.65% (inactive)
- COc1ccc(NC(=O)CCl)cc1: 12.8% (inactive)
- C[N+](C)=c1ccc2nc3c(cc(Nc4ccccc4)c4ccccc43)oc-2c1: 49.6% (inactive)

---

Assay Explanation: NCI Yeast Anticancer Drug Screen. Data for the rad50 strain (AID 155);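 also: 0% = growth of vehicle-only cultures of the same strain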
Condition Set: S. cerevisiae rad50 strain growth inhibition; at 50.0 µM; active compounds read high
This is part of a sample that, as a whole, favours compounds with a hit. Of some 79,000 tested, about 15% had one in any assay. Active and inactive are the calls of the source. No stated cut-off is given here; in the data, active means growth inhibition above about 70%; inactive means the rest.
Parameter Measured: growth inhibition

- O=c1[nH]c(O)c(/C=C2/C=Nc3ccccc32)[nH]1: 0.45% (inactive)
- O=C1C[C@H](c2ccccc2)[C@H](c2ccccc2)C1: 24.2% (inactive)
- CC1(C)S(=O)(=O)OCCOS1(=O)=O: -25.4% (inactive)
- COCCCC/C(=N\OCCN)c1ccc(C(F)(F)F)cc1: 26.5% (inactive)
- CCOC(=O)CNN: -7.2% (inactive)
- CN(c1ccccc1)c1ncnc2c1ncn2C: 2.65% (inactive)
- COS(=O)(=O)c1ccc(Br)cc1: -6% (inactive)
- Cc1ccc(C(=O)c2ccccc2)c(C)c1: 8.65% (inactive)
- CC(C)=NNC(N)=S: 2.45% (inactive)
- CCN1C(=O)/C(=C/C=C/N(C)c2ccccc2)SC1=S: 0.9% (inactive)
- O=C(CS)Nc1ccc2ccccc2c1: 3.5% (inactive)
- CCCCCCCCCCCCCC(=O)Oc1ccc[nH]c1=O: -12.2% (inactive)
- O=C(O)[C@@H]1[C@H]2C[C@H]3c4[nH]c5ccccc5c4CCN3C[C@@H]2CC[C@@H]1O: -10.3% (inactive)

---

Assay Explanation: NCI Yeast Anticancer Drug Screen. Data for the mlh1 rad18 strain (AID 175)
Condition Set: S. cerevisiae mlh1 rad18 strain growth inhibition; at 50.0 µM; active compounds read high
About 79,000 compounds went through this panel and 15% of them were active in at least one assay; those are over-represented in the sample as a whole.
Returns fulfilled if the recorded growth inhibition is greater than or equal to 20%, and not fulfilled otherwise.

* O=C1C[C@H](c2ccccc2)[C@H](c2ccccc2)C1 | not fulfilled
* COC(=O)c1ccc(NC(=O)CCl)cc1 | fulfilled
* COc1cc2c3c(n(C)c(=O)c2cc1OC)-c1cc2c(cc1C3=O)OCO2 | not fulfilled
* COC(=O)c1cc(-c2ccc(Cl)c(Cl)c2)[nH]c(=O)c1C#N | not fulfilled
* CC(C)OC(=O)c1cc(NC(=S)OC(C)C)ccc1Cl | fulfilled
* O=S(=O)(O)c1ccc(O)c2ccccc12 | fulfilled
* COC(=O)/C=C/C(=O)NC(N)=O | not fulfilled
* O=C1Cc2ccccc2C(=O)O1 | not fulfilled
* CC(=O)CC(=O)N(C)C | fulfilled
* CC1(C)N=C(N)N=C(N)N1c1ccc(Cl)cc1 | fulfilled
* O=C(O)C(Cc1ccccc1)C(=O)O | not fulfilled
* O=C(CC(=O)c1ccccc1O)c1ccccc1 | fulfilled
* O=S(=O)(O)C(Nc1ccccc1)c1ccccc1 (stereo not drawn) | not fulfilled
* CC1CC(O)CC(C)(C)C1 (stereo not drawn) | not fulfilled
* CCCC[P+](c1ccccc1)(c1ccccc1)c1ccccc1 | fulfilled
* O=C(N/N=C\c1cc(Br)cc(Br)c1O)N/N=C/c1cc(Br)cc(Br)c1O | fulfilled
* CC(C)=CC(=O)OC(=O)C=C(C)C | not fulfilled
* O=C1C=CC2=C3c4cc(O)c(O)cc4CC3(O)COC2=C1O (stereo not drawn) | not fulfilled
* OCc1cccc2ccccc12 | fulfilled
* O=C1C=C(O)C(=O)C=C1O | fulfilled
* CNc1nc(NC)c2cn[nH]c2n1 | not fulfilled
* C#CC(C(C)C)N(CCO)CCCC (stereo not drawn) | not fulfilled
* CCC(C)(O)c1ccc(C)cc1 (stereo not drawn) | not fulfilled
* COc1cccc(COC(=O)Nc2ccccc2)c1OC | not fulfilled
* CC1(C)/C(=C\CO)C2CCC1C2 (stereo not drawn) | not fulfilled
* CC1OC(Oc2c(-c3ccc(O)c(O)c3)oc3cc(O)cc(O)c3c2=O)C(O)C(O)C1O (stereo not drawn) | fulfilled
* S=c1sc2ccccc2n1CN1CCCCC1 | not fulfilled
* OC(c1ccccn1)C(O)c1ccccn1 (stereo not drawn) | not fulfilled
